Listed molecules paired with reported cell viability
- Test system: UCD52 (cells of a triple-negative basal-like breast cancer xenograft);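 further: PDX cells carrying CMV promoter-driven luciferase, viability read as total photon flux per second by IVIS imaging following D-luciferin, vehicle control 0.1% DMSO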
- METHOD NOTES: cell viability (% of vehicle); higher = less cytotoxic
- COND: 10 µM; 72 h
READOUT TYPE: cell viability

- MOLECULE: "CC12CC3CC(C)(C1)CC(N)(C3)C2.Cl [Memantine hydrochloride]"
  EXPERIMENTAL VALUE: 92.4
- MOLECULE: "CCN1CCCC1CNC(=O)c1cc(S(=O)(=O)CC)c(N)cc1OC (stereo not given) [Amisulpride]"
  EXPERIMENTAL VALUE: 116
- MOLECULE: "Cc1cccc(CN2CCN(C(c3ccccc3)c3ccc(Cl)cc3)CC2)c1.Cl.Cl (stereo not given) [Meclizine 2HCl]"
  EXPERIMENTAL VALUE: 44
- MOLECULE: "O=CC(O)C(O)C(O)CO (stereo not given)"
  EXPERIMENTAL VALUE: 83
- MOLECULE: "Cc1ccc2c(Cl)cc(Cl)c(O)c2n1"
  EXPERIMENTAL VALUE: 69.6
- MOLECULE: "CNC(=O)c1cc(Oc2ccc(NC(=O)Nc3ccc(Cl)c(C(F)(F)F)c3)c(F)c2)ccn1"
  EXPERIMENTAL VALUE: 117
- MOLECULE: "NC(N)=NS(=O)(=O)c1ccc(N)cc1"
  EXPERIMENTAL VALUE: 85.4
- MOLECULE: "CN1CCN(CCCN2c3ccccc3Sc3ccc(C(F)(F)F)cc32)CC1.Cl.Cl [Trifluoperazine 2HCl]"
  EXPERIMENTAL VALUE: 33.8
- MOLECULE: "CCCCOc1cc(C(=O)NCCN(CC)CC)c2ccccc2n1"
  EXPERIMENTAL VALUE: 81.2
- MOLECULE: "CC(C)NCC(O)c1ccc(NS(C)(=O)=O)cc1.Cl (stereo not given) [Sotalol hydrochloride]"
  EXPERIMENTAL VALUE: 116
- MOLECULE: "NS(=O)(=O)Cc1noc2ccccc12 [Zonisamide]"
  EXPERIMENTAL VALUE: 130
- MOLECULE: "CCOC(=O)c1ncn2c1CN(C)C(=O)c1cc(F)ccc1-2"
  EXPERIMENTAL VALUE: 118
- MOLECULE: "OCC1OC(Oc2ccc(O)cc2)C(O)C(O)C1O (stereo not given)"
  EXPERIMENTAL VALUE: 103
- MOLECULE: "Nc1ccc(S(N)(=O)=O)cc1 [Sulfanilamide]"
  EXPERIMENTAL VALUE: 94.6
- MOLECULE: "CCCC(=O)OCOC(=O)C1=C(C)NC(C)=C(C(=O)OC)C1c1cccc(Cl)c1Cl (stereo not given) [Clevidipine Butyrate]"
  EXPERIMENTAL VALUE: 92.2
- MOLECULE: "CNC(=O)C(NC(=O)C(CC(C)C)C(O)C(=O)NO)C(C)(C)C (stereo not given)"
  EXPERIMENTAL VALUE: 101
- MOLECULE: "CC(=O)N1CCN(c2ccc(OCC3COC(Cn4ccnc4)(c4ccc(Cl)cc4Cl)O3)cc2)CC1 (single isomer, unassigned; (+)) [(+)-Ketoconazole]"
  EXPERIMENTAL VALUE: 44.6
- MOLECULE: "Clc1ccc2c(c1)C(N1CCNCC1)=Nc1ccccc1O2"
  EXPERIMENTAL VALUE: 100
- MOLECULE: "O=P(O)(O)C(O)(Cn1ccnc1)P(=O)(O)O"
  EXPERIMENTAL VALUE: 60.6
- MOLECULE: "N=C(NCCCCCCNC(=N)NC(=N)Nc1ccc(Cl)cc1)NC(=N)Nc1ccc(Cl)cc1 [Chlorhexidine digluconate]"
  EXPERIMENTAL VALUE: 98.5
- MOLECULE: "O=C(O)CCNC(=O)c1ccccc1"
  EXPERIMENTAL VALUE: 99.9
- MOLECULE: "O=NN(CCCl)C(=O)NCCCl"
  EXPERIMENTAL VALUE: 116
- MOLECULE: "CN(C)c1nc(N(C)C)nc(N(C)C)n1"
  EXPERIMENTAL VALUE: 78
- MOLECULE: "CCCc1ncc(C[n+]2ccccc2C)c(N)n1.Cl.[Cl-] [Amprolium HCl]"
  EXPERIMENTAL VALUE: 71.4
- MOLECULE: "CC1CNCCCN1S(=O)(=O)c1cccc2cncc(F)c12.Cl.O.O (stereo not given)"
  EXPERIMENTAL VALUE: 84.8
- MOLECULE: "O=N[O-].[Na+] [Sodium Nitrite]"
  EXPERIMENTAL VALUE: 84
- MOLECULE: "O=C([O-])CC(O)CC(O)C=Cc1c(C2CC2)nc2ccccc2c1-c1ccc(F)cc1.O=C([O-])CC(O)CC(O)C=Cc1c(C2CC2)nc2ccccc2c1-c1ccc(F)cc1.[Ca+2] (stereo not given)"
  EXPERIMENTAL VALUE: 50.2
- MOLECULE: "Nc1ccc(O)c(C(=O)O)c1"
  EXPERIMENTAL VALUE: 105
- MOLECULE: "Cc1ccc(Nc2nccc(N(C)c3ccc4c(C)n(C)nc4c3)n2)cc1S(N)(=O)=O.Cl"
  EXPERIMENTAL VALUE: 90.5
- MOLECULE: "CC(CN1CC(=O)NC(=O)C1)N1CC(=O)NC(=O)C1 (stereo not given)"
  EXPERIMENTAL VALUE: 101
- MOLECULE: "CC(C)CC(NC(=O)C(CCc1ccccc1)NC(=O)CN1CCOCC1)C(=O)NC(Cc1ccccc1)C(=O)NC(CC(C)C)C(=O)C1(C)CO1 (stereo not given)"
  EXPERIMENTAL VALUE: 64.4
- MOLECULE: "CCCCCOc1ccc(-c2ccc(-c3ccc(C(=O)N[C@H]4C[C@@H](O)[C@@H](O)NC(=O)[C@@H]5[C@@H](O)[C@@H](C)CN5C(=O)[C@H]([C@@H](C)O)NC(=O)[C@H]([C@H](O)[C@@H](O)c5ccc(O)cc5)NC(=O)[C@@H]5C[C@@H](O)CN5C(=O)[C@H]([C@@H](C)O)NC4=O)cc3)cc2)cc1"
  EXPERIMENTAL VALUE: 47.7
- MOLECULE: "CC(C)c1cc(C(=O)N2Cc3ccc(CN4CCN(C)CC4)cc3C2)c(O)cc1O"
  EXPERIMENTAL VALUE: 77.1
- MOLECULE: "NC(CO)(CO)CO"
  EXPERIMENTAL VALUE: 86
- MOLECULE: "CC/C(=C(\\c1ccccc1)c1ccc(OCCN(C)C)cc1)c1ccccc1"
  EXPERIMENTAL VALUE: 74.5
